These measurements were taken from patent US12077503B2.

# Test system: giant foxtail (Setaria faberi)
# PROCEDURE_SUMMARY: Test G Pre-Emergence Protocol
# Assay type: in vivo
# CONDITION_CONTEXT: Setaria faberi, pre-emergence, 312 h, 62.5 g ai/ha, evaluated after 13 days, 100=total damage to plant, 0=no damage to plant, read-out: Foxtail, Giant damage rating
I'd be grateful if you could share measured pest or weed control at 62.5 g/ha for these entries.
Give bare numbers, in %.

These solved cases illustrate the format of a correct answer.
>>> readout_number("C=Cc1cccc([C@@H]2CN(C)C(=O)[C@H]2C(=O)Nc2cccc(F)c2F)c1 (racemic)")
80
>>> readout_number("CN1C[C@H](c2ccc(C(F)(F)F)cc2)[C@@H](C(=O)Nc2cnccc2[S+](C)[O-])C1=O (mixture of isomers)")
0
>>> readout_number("CN1C[C@H](c2cccc(C(F)(F)F)c2)[C@@H](C(=O)Nc2cccc3c2S(=O)(=O)CC3)C1=O (racemic)")
0
>>> readout_number("CN1CC(c2cc(C#N)cc(OC(F)(F)F)c2)C(C(=O)Nc2cccc(F)c2F)C1=O (stereo not shown)")
0
>>> readout_number("CC(C)Oc1cc(OC(F)(F)F)cc(C2CN(C)C(=O)C2C(=O)Nc2cccc(F)c2F)c1 (stereo not shown)")
50
>>> readout_number("CN1C[C@H](c2ccc(C(F)F)cc2)[C@@H](C(=O)Nc2cnccc2C(F)(F)F)C1=O (racemic)")
90
>>> readout_number("CN1C[C@H](c2cccc(C(F)(F)F)c2)[C@@H](C(=O)Nc2cccc(F)n2)C1=O (racemic)")
90
>>> readout_number("COc1cc(C2CN(C)C(=O)C2C(=O)Nc2cccc(F)c2F)cc(Cl)c1F (stereo not shown)")
70
>>> readout_number("CN1C[C@H](c2cccc(C(F)(F)F)c2)[C@@H](C(=O)Nc2cnccc2S(C)(=O)=O)C1=O (racemic)")
10
>>> readout_number("CN1C[C@@H](c2ccc(C(F)(F)F)cc2)[C@H](C(=O)Nc2cscn2)C1=O (racemic)")
0

Please state, for each entry, its recorded pest or weed control at 62.5 g/ha.
1. Cc1cccc(NC(=O)[C@H]2C(=O)N(C)C[C@@H]2c2ccc(C(F)(F)F)cc2)[n+]1[O-] (racemic)
2. Cc1nc(Cl)ccc1NC(=O)[C@H]1C(=O)N(C)C[C@@H]1c1ccc(C(F)(F)F)cc1 (racemic)
3. CN1C[C@H](c2ccc(Cl)cc2)[C@@H](C(=O)Nc2cnccc2C(F)(F)F)C1=O

Response:
1. 0
2. 20
3. 90

---

I'd be grateful if you could share measured pest or weed control at 500 g/ha for these entries.
# Tested on: Galium (catchweed bedstraw, Galium aparine)
# PROCEDURE_SUMMARY: Test A postemergence
# Format: in vivo
# CONDITION_CONTEXT: Galium, post-emergence, 240 h, 500 g ai/ha, postemergence; 0 to 100 scale, 0 is no effect, 100 is complete control; read-out: Galium plant response rating
Numbers only, in %.

These solved cases illustrate the format of a correct answer.
>>> readout_number("Cc1c(F)cccc1NC(=O)[C@H]1C(=O)N(C)C[C@@H]1c1ccc(C(F)(F)F)nc1")
60
>>> readout_number("O=C1NC[C@H](c2csc(C(F)F)c2)[C@H]1C(=O)Nc1cccc(F)c1F")
50
>>> readout_number("CSc1ccccc1NC(=O)C1C(=O)NCC1C=C(C)C (stereo not shown)")
0

# ---- query molecule ----
Prompt: Need pest or weed control at 500 g/ha, item C/C=C/N1C[C@@H](c2cccc(C(F)(F)F)c2)[C@H](C(=O)Nc2ccccc2F)C1=O (racemic)
Response: 20

---

# System: Kochia (Kochia scoparia)
# PROCEDURE_SUMMARY: Test A postemergence
# Format: in vivo
# CONDITION_CONTEXT: Bassia scoparia, post-emergence, 240 h, 125 g ai/ha, postemergence, visual injury vs untreated controls after approx. 10 d; 0 = no effect, 100 = complete control; read-out: Kochia plant response rating (0 to 100 scale)
ENDPOINT_LABEL: pest or weed control at 125 g/ha (%)
One number for each entry, in %.

>>> readout_number("CSc1ccccc1NC(=O)[C@H]1C(=O)N(C)C[C@@H]1c1ccc(OC(F)F)cc1 [Compound 1212]")
60
>>> readout_number("Cc1c(F)cccc1NC(=O)[C@H]1C(=O)N(C)C[C@@H]1c1ccc(C(F)(F)F)nc1 [Compound 1197]")
70

Please state, for each entry, its recorded pest or weed control at 125 g/ha.
1. O=C1NC[C@H](c2cccc(C(F)(F)F)c2)C1C(=O)Nc1ccccc1CO (some centres unmarked) [Compound 1244]
2. CN1C[C@H](c2ccc(C(F)F)cc2)[C@@H](C(=O)Nc2ccc(F)c(F)c2F)C1=O [Compound 1260]
3. CN1CC[C@H](c2cccc(C(F)(F)F)c2)[C@@H](C(=O)Nc2cccc(F)c2Cl)C1=O [Compound 1158]
4. Cc1cc([C@H]2CN(C)C(=O)[C@@H]2C(=O)Nc2cccc(F)c2F)no1 [Compound 1237]
5. CN1C[C@H](c2cccc(C(F)(F)F)c2)[C@@H](C(=O)Nc2ccccc2CCO)C1=O (racemic) [Compound 1162]
6. O=C1NC[C@H](c2cccc(I)c2)[C@H]1C(=O)Nc1ccccc1F [Compound 1160]

Response:
0
60
0
0
0
0

---

I'd be grateful if you could share measured Plant response rating, Barnyardgrass for these entries.
# System: barnyardgrass (Echinochloa crus-galli)
# PROCEDURE_SUMMARY: Test A postemergence
# Assay type: in vivo
# CONDITION_CONTEXT: 500 g ai/ha, postemergence; visual injury, 0 to 100 scale (0 no effect, 100 complete control), approx. 10 d
One number for each entry.

These solved cases illustrate the format of a correct answer.
>>> readout_number("COC(=O)c1ccccc1NC(=O)C1C(=O)NCC1c1cccc(C(F)(F)F)c1 (racemic) [Compound 705]")
0
>>> readout_number("CN1CC(c2ccc(C(C)(F)F)cc2)C(C(=O)Nc2cccc(F)c2F)C1=O (centres unmarked) [Compound 690]")
80
>>> readout_number("O=C1NCC(c2cccc(OC(F)(F)C(F)F)c2)C1C(=O)Nc1ccc(F)c(F)c1F (racemic) [Compound 698]")
80

Please state, for each entry, its recorded Plant response rating, Barnyardgrass.
1. Cc1cccc(C2CN(C)C(=O)C2C(=O)Nc2ccccc2S(C)(=O)=O)c1 (centres unmarked) [Compound 668]
2. O=C1NCC(c2ccc(I)cc2)C1C(=O)Nc1cccc(F)c1F (racemic) [Compound 700]

Response:
1: 90; 2: 70

---

# Test system: pigweed (Amaranthus retroflexus)
# PROCEDURE_SUMMARY: Test A postemergence
# Format: in vivo
# CONDITION_CONTEXT: Amaranthus retroflexus, post-emergence, 240 h, 125 g ai/ha, postemergence; visual injury after approximately 10 d; 0 to 100 scale (0 no effect, 100 complete control); read-out: Plant response rating, Pigweed
ENDPOINT_LABEL: pest or weed control at 125 g/ha (%)
Numbers only, in %.

These solved cases illustrate the format of a correct answer.
>>> readout_number("Cc1ccc([C@H]2CNC(=S)[C@@H]2C(=O)Nc2cccc(F)c2F)cc1C")
0
>>> readout_number("Cc1cc(F)cc([C@H]2CN(C)C(=O)[C@@H]2C(=O)Nc2cccc(F)c2C#N)c1")
40
>>> readout_number("CN1C[C@H](c2cc(F)cc(F)c2)[C@@H](C(=O)NC2CCc3ccccc32)C1=O (some centres unmarked)")
0
>>> readout_number("CN1C[C@H](c2cccc(C(F)(F)F)c2)[C@@H](C(=O)Nc2ccccc2C2CC2)C1=O")
0

Prompt: Need pest or weed control at 125 g/ha, item Cc1ccc(NC(=O)[C@H]2C(=O)N(C)C[C@@H]2c2cc(F)cc(F)c2)c(F)c1
Response: 0

---

# System: pigweed (Amaranthus retroflexus)
# PROCEDURE_SUMMARY: Test A preemergence
# Assay type: in vivo
# CONDITION_CONTEXT: Amaranthus retroflexus, pre-emergence, 240 h, 500 g ai/ha, preemergence; visual injury rating about 10 d after treatment, 0 to 100 scale (0 no effect, 100 complete control); read-out: Pigweed plant response rating
I'd be grateful if you could share measured pest or weed control at 500 g/ha for these entries.

These solved cases illustrate the format of a correct answer.
>>> result("COc1ccc([C@H]2CN(C)C(=O)[C@@H]2C(=O)Nc2cccc(F)c2F)cc1C(F)(F)F")
"70%"
>>> result("O=C(Nc1ccccc1F)[C@H]1C(=S)NC[C@@H]1c1ccc(Cl)cc1 (racemic)")
"0%"

Please state, for each entry, its recorded pest or weed control at 500 g/ha.
1. CSc1ccccc1NC(=O)C1C(=O)NCC1C=C(C)C (centres unmarked)
2. CSc1ccccc1NC(=O)[C@H]1C(=O)N(C)C[C@@H]1c1ccc(C)c(Cl)c1
3. Cc1cc([C@H]2CNC(=O)[C@@H]2C(=O)Nc2ccc(F)cc2F)ccc1C(F)(F)F
4. O=C1NCC(c2ccccc2OC(F)(F)C(F)F)C1C(=O)Nc1cccc(F)c1F (centres unmarked)
5. CCOc1cccc([C@H]2CNC(=O)[C@@H]2C(=O)Nc2cccc(F)c2F)c1
6. CCOc1cccc([C@H]2CN(C)C(=O)[C@@H]2C(=O)Nc2ccccc2F)c1

Response:
1. 0%
2. 40%
3. 20%
4. 0%
5. 0%
6. 0%
